The measurements presented in this section are drawn from ChEMBL document CHEMBL3885861.

# Species: Rattus norvegicus
# Assay comment: Open TG-GATES - Regimen: Daily Repeat
# Assay type: toxicity, organism-based, Sprague-Dawley
# Design: regimen Daily Repeat, gender Male, age 6 weeks
# Measurement context: in vivo, po, 0 mg/kg, […], tissue Plasma, route gavage, dose level Control, time 7 day
Parameter measured: RALB (g/dL)
One number for each entry, in g/dL.

These recorded examples may help you get a feel for the data.
{"columns": ["Compound", "Units text", "Observed measurement"],
 "data": [
  ["Nc1nc(N)c2nc(-c3ccccc3)c(N)nc2n1", "g/dL", 2.7],
  ["CCN1CCCC1CNC(=O)c1cc(S(N)(=O)=O)ccc1OC (stereo not given) [SULPIRIDE]", "g/dL", 2.6],
  ["C[C@]12CCC(=O)C=C1CC[C@@H]1[C@@H]2CC[C@@]2(C)[C@H]1CC[C@]2(C)O", "g/dL", 2.7],
  ["C[C@](N)(Cc1ccc(O)c(O)c1)C(=O)O", "g/dL", 2.7]
]}

Could you now look at the following compound, please?
Input CC(=N)S [THIOACETAMIDE] . Output RALB: 3.9
